Entries and their IC50
biological target: Cholinesterase (Equus caballus, UniProt P81908)
Sequence (P81908 whole entry): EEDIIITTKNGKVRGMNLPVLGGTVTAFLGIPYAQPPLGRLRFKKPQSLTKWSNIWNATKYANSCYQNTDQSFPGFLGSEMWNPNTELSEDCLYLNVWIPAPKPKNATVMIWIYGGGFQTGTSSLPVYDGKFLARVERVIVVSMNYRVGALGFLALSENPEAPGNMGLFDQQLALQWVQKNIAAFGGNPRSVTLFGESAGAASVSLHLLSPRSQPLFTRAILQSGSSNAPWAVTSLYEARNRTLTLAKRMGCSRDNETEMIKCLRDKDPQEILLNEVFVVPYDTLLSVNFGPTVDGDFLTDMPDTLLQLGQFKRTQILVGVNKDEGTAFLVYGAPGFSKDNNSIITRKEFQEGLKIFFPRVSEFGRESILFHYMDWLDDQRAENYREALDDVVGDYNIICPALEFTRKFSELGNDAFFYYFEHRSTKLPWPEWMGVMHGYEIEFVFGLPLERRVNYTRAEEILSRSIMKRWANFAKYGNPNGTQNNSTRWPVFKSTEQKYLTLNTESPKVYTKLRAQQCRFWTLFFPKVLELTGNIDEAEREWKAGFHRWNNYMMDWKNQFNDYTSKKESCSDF
Answer shape: numeric part, then the unit.

Query :: Given Fc1ccc(CNc2ccnc(NC3CCN(Cc4ccccc4)CC3)n2)cc1 , report its IC50 on Cholinesterase (Equus caballus, UniProt P81908).
Result :: 2.2 µM

====

experiment: Cytotoxicity against human SH-SY5Y cells assessed as cell viability at 40 uM after 24 hrs by MTT assay; type: cell-based; details: read-out: Activity
Endpoint: viability at 24 h, 40 µM (%)
State the answer as a number, implicitly in %.

Query :: Look up and report measured viability at 24 h, 40 µM for this entry: COc1ccc(CNc2ccnc(NC3CCN(Cc4ccccc4)CC3)n2)cc1OC
Result :: 81

====

Entries and their inhibition
experiment: Inhibition of self-induced amyloid beta (1 to 40) aggregation at 100 uM after 24 hrs by thioflavin T-based fluorescence analysis

Structure Smiles	Endpoint	Result
COc1ccc(CNc2ccnc(NC3CCN(Cc4ccccc4)CC3)n2)cc1	inhibition	18.2%
COc1ccc2c3c1O[C@H]1C[C@@H](O)C=C[C@@]31CCN(C)C2	inhibition	48%
c1ccc(CN2CCC(Nc3nccc(NCc4ccc5c(c4)OCO5)n3)CC2)cc1	inhibition	18.6%

Query :: Look up and report measured inhibition for this entry: COc1ccc(CNc2ccnc(NC3CCN(Cc4ccccc4)CC3)n2)cc1OC
Result :: 17.4%

Query :: Look up and report measured inhibition for this entry: Clc1cccc(CNc2ccnc(NC3CCN(Cc4ccccc4)CC3)n2)c1
Result :: 39.9%

Query :: Look up and report measured inhibition for this entry: Clc1ccc(CNc2ccnc(NC3CCN(Cc4ccccc4)CC3)n2)cc1
Result :: 42.6%

Query :: Look up and report measured inhibition for this entry: Brc1ccc(CNc2ccnc(NC3CCN(Cc4ccccc4)CC3)n2)cc1
Result :: 48.4%

Query :: Look up and report measured inhibition for this entry: Cc1ccc(CNc2ccnc(NC3CCN(Cc4ccccc4)CC3)n2)cc1
Result :: 21.9%

Query :: Look up and report measured inhibition for this entry: Clc1ccccc1CNc1ccnc(NC2CCN(Cc3ccccc3)CC2)n1
Result :: 42.2%

Query :: Look up and report measured inhibition for this entry: Fc1ccc(CNc2ccnc(NC3CCN(Cc4ccccc4)CC3)n2)cc1
Result :: 29.8%

====

experiment: Selectivity ratio of IC50 for human AChE to IC50 for equine BuChE
Endpoint: Ratio IC50
Form: value (number only, do not type unit).

Please review the entries below; each comes with its answer.
Structure Smiles	Ratio IC50
Clc1ccccc1CNc1ccnc(NC2CCN(Cc3ccccc3)CC2)n1	3.2
Clc1cccc(CNc2ccnc(NC3CCN(Cc4ccccc4)CC3)n2)c1	3.1

Then this molecule:
Query :: Look up and report measured Ratio IC50 for this entry: c1ccc(CN2CCC(Nc3nccc(NCc4ccc5c(c4)OCO5)n3)CC2)cc1
Result :: 3.2

====

biological target: Cholinesterase (Equus caballus, UniProt P81908)
Strictly below 3 µM in IC50: 1 (yes). Otherwise: 0 (no).

Recorded results for 5 molecules are shown here.
Structure Smiles	Class Name
Clc1ccccc1CNc1ccnc(NC2CCN(Cc3ccccc3)CC2)n1	1 (yes)
Brc1ccc(CNc2ccnc(NC3CCN(Cc4ccccc4)CC3)n2)cc1	0 (no)
COc1ccc(CNc2ccnc(NC3CCN(Cc4ccccc4)CC3)n2)cc1	0 (no)
c1ccc(CN2CCC(Nc3nccc(NCc4ccc5c(c4)OCO5)n3)CC2)cc1	0 (no)
Cc1ccc(CNc2ccnc(NC3CCN(Cc4ccccc4)CC3)n2)cc1	1 (yes)

Query :: # strict comparison: is reported IC50 < 3 µM? input = Clc1ccc(CNc2ccnc(NC3CCN(Cc4ccccc4)CC3)n2)cc1
Result :: 1 (yes)

Query :: # strict comparison: is reported IC50 < 3 µM? input = Clc1cccc(CNc2ccnc(NC3CCN(Cc4ccccc4)CC3)n2)c1
Result :: 1 (yes)

Query :: # strict comparison: is reported IC50 < 3 µM? input = COc1ccc(CNc2ccnc(NC3CCN(Cc4ccccc4)CC3)n2)cc1OC
Result :: 0 (no)

Query :: # strict comparison: is reported IC50 < 3 µM? input = COc1cc(CNc2ccnc(NC3CCN(Cc4ccccc4)CC3)n2)cc(OC)c1OC
Result :: 0 (no)
